Hello, the source for this data is patent EP1038880B1, in case you need it.

- Tested on: metrazol induced convulsions
- Experiment Summary: animal or person
- Type: in vivo, mice
- Measurement Setup: 60 mg/kg, 1hr, IP
Metric: % Protection (%)

>>> print(df.to_string())
                                   molecule  units_label  measured
0  COc1ccc(C(=O)OC2CCC3(C)C(CCC4C3CCC3(C)C(C(C)=O)CCC43)C2)cc1 (stereo not shown)            %        17
1  CC(=O)C1CCC2C3CCC4CC(OC(=O)C(C)C)CCC4(C)C3CCC12C (stereo not shown)            %        75
2  CC(=O)[C@H]1CC[C@H]2[C@@H]3CC[C@H]4C[C@H](OC(=O)c5ccccc5)CC[C@]4(C)[C@H]3CC[C@]12C            %        33
3  CC(=O)OC1CCC2(C)C(CCC3C2CCC2(C)C(C(C)=O)CCC32)C1 (stereo not shown)            %        25
4  CCC(=O)OC1CCC2(C)C(CCC3C2CCC2(C)C(C(C)=O)CCC32)C1 (stereo not shown)            %        75
5  CCCC(=O)OC1CCC2(C)C(CCC3C2CCC2(C)C(C(C)=O)CCC32)C1 (stereo not shown)            %        75
6  CC(=O)C1CCC2C3CCC4CC(OC(=O)c5ccc(Cl)cc5)CCC4(C)C3CCC12C (stereo not shown)            %        50
